Origin of values: patent US11040981B2

pIC50 tested on UniProtKB P36888: recorded values
Sequence (P36888 27-993, species assumed): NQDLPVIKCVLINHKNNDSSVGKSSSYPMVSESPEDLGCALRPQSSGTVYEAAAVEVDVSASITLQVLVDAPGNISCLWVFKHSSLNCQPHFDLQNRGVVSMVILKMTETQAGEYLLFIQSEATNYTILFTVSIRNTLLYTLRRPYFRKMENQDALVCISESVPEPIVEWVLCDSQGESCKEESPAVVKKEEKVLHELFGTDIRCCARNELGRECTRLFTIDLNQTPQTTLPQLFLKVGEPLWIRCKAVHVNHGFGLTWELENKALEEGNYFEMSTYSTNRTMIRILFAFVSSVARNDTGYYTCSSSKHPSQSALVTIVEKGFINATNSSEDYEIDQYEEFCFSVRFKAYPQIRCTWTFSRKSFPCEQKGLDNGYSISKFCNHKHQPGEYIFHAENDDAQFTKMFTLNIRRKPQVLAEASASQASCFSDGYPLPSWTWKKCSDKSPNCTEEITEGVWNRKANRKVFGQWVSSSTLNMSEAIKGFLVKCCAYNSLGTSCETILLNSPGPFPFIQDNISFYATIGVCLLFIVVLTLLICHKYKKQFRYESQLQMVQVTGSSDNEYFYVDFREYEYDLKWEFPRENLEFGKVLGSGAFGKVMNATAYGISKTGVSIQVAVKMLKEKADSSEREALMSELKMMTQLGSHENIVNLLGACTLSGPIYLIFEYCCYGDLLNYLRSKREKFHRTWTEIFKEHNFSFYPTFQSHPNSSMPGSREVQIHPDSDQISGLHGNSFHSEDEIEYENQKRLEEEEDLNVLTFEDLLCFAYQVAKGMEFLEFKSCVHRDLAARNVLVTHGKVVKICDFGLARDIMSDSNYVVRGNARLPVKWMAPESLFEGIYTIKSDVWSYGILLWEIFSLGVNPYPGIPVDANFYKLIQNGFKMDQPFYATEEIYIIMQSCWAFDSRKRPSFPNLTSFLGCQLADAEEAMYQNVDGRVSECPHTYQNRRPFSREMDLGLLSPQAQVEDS
pIC50: −log10 of the molar value.

Reference set (4 entries):
1) COC[C@H](C)Nc1ncc2c(-c3cnn(C(C)(C)c4nnc(C(F)F)o4)c3)cc([C@H]3CC[C@H](O)CC3)n2n1 [Compound 599]: 5.00 to 6.00
2) COC[C@H](C)Nc1ncc2c(-c3cccc(CN4CCC(F)(F)C4)c3)cc([C@H]3CC[C@H](O)CC3)n2n1 [Compound 223]: 5.00 to 6.00
3) CCCCC[C@H](C)Nc1ncc2c([C@H]3CC[C@H](C(=O)N4CCOCC4)CC3)cc([C@H]3CC[C@H](O)CC3)n2n1 [Compound 108]: 6.00 to 7.00
4) CNS(=O)(=O)c1cncc(-c2cc([C@H]3CC[C@H](O)CC3)n3nc(N[C@@H](C)COC(F)F)ncc23)c1 [Compound 275]: 5.00 to 6.00

IN: Endpoint output: pIC50 of COC[C@H](C)Nc1ncc2c(-c3ccnc(O[C@H]4CCCN(C)C4)c3)cc([C@H]3CC[C@H](O)CC3)n2n1 [Compound 403] . Value?
OUT: 6.00 to 7.00

IN: Endpoint output: pIC50 of COC[C@H](C)Nc1ncc2c([C@H]3CCN(S(C)(=O)=O)C3)cc([C@H]3CC[C@H](O)CC3)n2n1 [Compound 376] . Value?
OUT: 5.00 to 6.00

IN: Endpoint output: pIC50 of C[C@@H](CC(F)(F)F)Nc1ncc2c(-c3cncc(C(=O)N(C)C)c3)cc([C@H]3CC[C@H](O)CC3)n2n1 [Compound 310] . Value?
OUT: 6.00 to 7.00
